The values you see were collected from patent US8314256B2.

target: ΔF508-CFTR (Homo sapiens, UniProt P13569, DEL508-508); assay: Membrane potential optical assay of ΔF508-CFTR modulation (Table 3 EC50; the table does not name the assay)
Sequence (P13569 with tags, fused parts or gaps DEL508-508): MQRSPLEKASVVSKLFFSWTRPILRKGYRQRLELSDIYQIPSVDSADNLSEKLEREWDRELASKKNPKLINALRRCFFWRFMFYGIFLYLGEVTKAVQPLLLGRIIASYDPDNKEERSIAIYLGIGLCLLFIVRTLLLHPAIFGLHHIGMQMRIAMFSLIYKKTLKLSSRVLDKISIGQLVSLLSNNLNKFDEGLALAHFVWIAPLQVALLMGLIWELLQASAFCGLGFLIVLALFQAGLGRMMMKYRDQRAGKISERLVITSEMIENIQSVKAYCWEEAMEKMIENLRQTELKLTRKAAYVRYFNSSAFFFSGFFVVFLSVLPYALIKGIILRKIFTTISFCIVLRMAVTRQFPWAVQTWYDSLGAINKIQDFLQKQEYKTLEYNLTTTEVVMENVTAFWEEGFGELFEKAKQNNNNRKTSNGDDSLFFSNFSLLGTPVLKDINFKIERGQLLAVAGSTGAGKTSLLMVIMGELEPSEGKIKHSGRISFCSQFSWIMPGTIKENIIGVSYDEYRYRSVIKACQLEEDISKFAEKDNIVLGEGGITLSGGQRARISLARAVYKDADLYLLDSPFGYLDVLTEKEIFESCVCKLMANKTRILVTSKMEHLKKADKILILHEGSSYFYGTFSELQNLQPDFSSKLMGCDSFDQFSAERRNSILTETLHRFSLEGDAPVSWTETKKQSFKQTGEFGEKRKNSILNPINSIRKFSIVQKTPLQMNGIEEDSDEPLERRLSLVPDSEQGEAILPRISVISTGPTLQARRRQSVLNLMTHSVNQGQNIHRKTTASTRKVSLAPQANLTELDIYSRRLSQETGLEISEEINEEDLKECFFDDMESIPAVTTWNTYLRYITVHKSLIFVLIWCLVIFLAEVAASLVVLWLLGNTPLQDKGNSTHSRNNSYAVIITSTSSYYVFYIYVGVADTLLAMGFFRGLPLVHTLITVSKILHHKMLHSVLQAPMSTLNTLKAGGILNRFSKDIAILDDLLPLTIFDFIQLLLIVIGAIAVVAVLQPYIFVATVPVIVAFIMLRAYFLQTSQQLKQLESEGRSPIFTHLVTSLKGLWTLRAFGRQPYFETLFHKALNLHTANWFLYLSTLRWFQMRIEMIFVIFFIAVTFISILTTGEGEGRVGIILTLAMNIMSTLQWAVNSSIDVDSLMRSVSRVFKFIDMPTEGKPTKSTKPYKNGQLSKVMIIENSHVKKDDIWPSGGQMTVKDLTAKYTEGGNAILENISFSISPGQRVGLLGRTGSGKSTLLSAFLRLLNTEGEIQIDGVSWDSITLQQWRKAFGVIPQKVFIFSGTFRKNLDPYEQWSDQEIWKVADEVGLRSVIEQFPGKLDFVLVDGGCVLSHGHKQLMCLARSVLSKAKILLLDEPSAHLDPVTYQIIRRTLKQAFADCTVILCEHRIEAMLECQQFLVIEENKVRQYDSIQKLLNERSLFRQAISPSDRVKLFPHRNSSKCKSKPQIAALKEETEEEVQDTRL
This listing pairs molecules with measured EC50.

These recorded examples may help you get a feel for the data.
molecule=CN(Cc1ccccc1)C(=O)C(=O)c1c[nH]c2ccccc12 assay_endpoint=EC50 result="> 5 µM"
molecule=O=C(NCCc1ccccc1)C(=O)c1c[nH]c2ccccc12 assay_endpoint=EC50 result="< 1 µM"
molecule=Cc1ccc(Cn2cc(SCCNC(=O)C(=O)c3c[nH]c4ccccc34)c3ccccc32)cc1 assay_endpoint=EC50 result="< 1 µM"
molecule=O=C(NCc1ccccc1)C(=O)c1c[nH]c2ccccc12 assay_endpoint=EC50 result="< 1 µM"
molecule=COc1ccccc1N1CCN(C(=O)C(=O)c2c[nH]c3ccc(Br)cc23)CC1 assay_endpoint=EC50 result="1 to 5 µM"
molecule=O=C(NCCc1ccccc1)C(=O)c1c[nH]c2ccc(Br)cc12 assay_endpoint=EC50 result="< 1 µM"
molecule=CC(=O)Nc1ccc(OCCCNC(=O)C(=O)c2c[nH]c3ccc(Br)cc23)cc1 assay_endpoint=EC50 result="1 to 5 µM"
molecule=Cn1cc(C(=O)C(=O)NC(c2ccccc2)c2ccccc2)c2ccccc21 assay_endpoint=EC50 result="> 5 µM"

Now for the molecule whose EC50 we want.
Q: Provide one value: measured EC50 of Cn1cc(C(=O)C(=O)N(Cc2ccccc2)Cc2ccccc2)c2ccccc21
Ans: 1 to 5 µM
